Source: patent US8293769B2

Collected inhibition at 1 µM values appear next to each entry.
# target.of.assay: cKIT (Homo sapiens, UniProt P10721)
# Construct: The kinase domain of cKIT was assayed in 50 mM Hepes; purchased Upstate 14-559
# Sequence (P10721 589-937 limits assumed): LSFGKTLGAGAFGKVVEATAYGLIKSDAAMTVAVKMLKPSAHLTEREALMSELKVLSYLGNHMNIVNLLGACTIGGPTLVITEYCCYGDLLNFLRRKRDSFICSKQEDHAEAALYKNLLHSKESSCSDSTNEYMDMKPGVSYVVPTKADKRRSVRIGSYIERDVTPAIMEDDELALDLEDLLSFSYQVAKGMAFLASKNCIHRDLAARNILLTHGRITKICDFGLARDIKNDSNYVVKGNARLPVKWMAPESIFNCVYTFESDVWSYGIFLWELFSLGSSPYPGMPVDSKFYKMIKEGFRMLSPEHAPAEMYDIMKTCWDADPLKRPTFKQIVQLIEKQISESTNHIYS
# assay.comment: cKIT kinase in vitro biochemical assay (alphascreen)
# settings: tested at about 1 μM; read-out: CKIT percent inhibition
metric: inhibition at 1 µM (%)

>  <molecule>
c1nc(Oc2ccc3nc(NCC4CCCCC4)sc3c2)c2ccsc2n1 [Compound 37]

>  <assay.result>
75

$$$$
>  <molecule>
C[C@H](Nc1nc2ccc(Oc3cc(-n4cncn4)ccn3)cc2s1)C1CCCCC1 [Compound 39]

>  <assay.result>
33

$$$$
>  <molecule>
c1cc(Oc2ccc3nc(NCC4CCCCC4)sc3c2)nc(N2CCOCC2)n1 [Compound 15]

>  <assay.result>
26

$$$$
>  <molecule>
CN1CCN(c2ccc(-c3cc(Oc4ccc5nc(N[C@@H]6CCCC[C@H]6O)sc5c4)cnc3Cl)cn2)CC1 [Compound 103]

>  <assay.result>
14

$$$$
>  <molecule>
Nc1ccc(Oc2ccc3nc(NCC4CCCCC4)sc3c2)nn1 [Compound 89]

>  <assay.result>
46

$$$$
>  <molecule>
CNc1cc(Oc2ccc3nc(NCC4CCCCC4)sc3c2)ncn1 [Compound 13]

>  <assay.result>
42

$$$$
>  <molecule>
C[C@H](Nc1nc2ccc(Oc3ccnc(-c4ccnn4C)n3)cc2s1)C1CCCCC1 [Compound 34]

>  <assay.result>
21

$$$$
>  <molecule>
O=[N+]([O-])c1ccc(Oc2ccc3nc(NCC4CCCCC4)sc3c2)cn1 [Compound 71]

>  <assay.result>
11

$$$$
>  <molecule>
Cn1cc(-c2cc(Oc3ccc4nc(N[C@@H]5CCCC[C@H]5O)sc4c3)ncn2)cn1 [Compound 22]

>  <assay.result>
29

$$$$
